Where do these numbers come from? They come from ChEMBL document CHEMBL1150203.

# System: Trichophyton mentagrophytes
# EXPERIMENT DESCRIPTION: Antifungal activity against Trichophyton mentagrophytes ATCC 9972 at 1 mg/ml after 72 hrs by agar-well diffusion assay
# Format: functional
# STATED CONDITIONS: ATCC 9972, 72 h, read-out: IZ
OBSERVABLE: zone of inhibition at 1000 µg/mL (mm)

SMILES INPUT: C[C@@H]1[C@H](O)[C@@H](C)/C=C/C=C/C=C/C=C/C=C/C=C/C=C/[C@H](O[C@@H]2O[C@H](C)[C@@H](O)[C@H](N)[C@@H]2O)C[C@@H]2O[C@](O)(C[C@@H](O)C[C@@H](O)[C@H](O)CC[C@@H](O)C[C@@H](O)CC(=O)O[C@H]1C)C[C@H](O)[C@H]2C(=O)O
OBSERVABLE: zone of inhibition at 1000 µg/mL
UNIT ABBREVIATION: mm
OBSERVED VALUE: 7
//
SMILES INPUT: C[C@@H]1CC[C@@]2(C)C(C(=O)O)=CCC[C@@H]2[C@@]1(C)CCc1ccoc1
OBSERVABLE: zone of inhibition at 1000 µg/mL
UNIT ABBREVIATION: mm
OBSERVED VALUE: 3
//
SMILES INPUT: C[C@@H]1CC[C@@]2(C)C(CO)=CCC[C@@H]2[C@@]1(C)CCc1ccoc1
OBSERVABLE: zone of inhibition at 1000 µg/mL
UNIT ABBREVIATION: mm
OBSERVED VALUE: 3
//
SMILES INPUT: COC(=O)C1=CCC[C@@H]2[C@@](C)(CCc3ccoc3)[C@H](C)CC[C@@]12C
OBSERVABLE: zone of inhibition at 1000 µg/mL
UNIT ABBREVIATION: mm
OBSERVED VALUE: 1
//
SMILES INPUT: C=C(C)[C@@H]1CC[C@@]23C[C@@H]4[C@@H](C[C@H]2[C@]1(C)CCC(=O)O)[C@@]4(C)C3
OBSERVABLE: zone of inhibition at 1000 µg/mL
UNIT ABBREVIATION: mm
OBSERVED VALUE: 1

###

# Tested on: Pseudomonas aeruginosa
# EXPERIMENT DESCRIPTION: Antibacterial activity against Pseudomonas aeruginosa ATCC 15442 at 1 mg/ml after 48 hrs by agar-well diffusion assay
# Type: functional
Calls of active or inactive are those of the source. The calls are words filed in the database; no cut-off is given here.
OBSERVABLE: inhibition zone (IZ)

MOLECULE: COC(=O)CC[C@]1(C)C(C(C)=O)CC[C@@]23C[C@@H]4[C@@H](CC21)[C@@]4(C)C3 (stereo partly drawn)
OBSERVABLE: inhibition zone (IZ)
OBSERVED VALUE: inactive

MOLECULE: C=C(C)[C@@H]1CC[C@@]23C[C@@H]4[C@@H](C[C@H]2[C@]1(C)CCC(=O)OC)[C@@]4(C)C3
OBSERVABLE: inhibition zone (IZ)
OBSERVED VALUE: inactive

MOLECULE: COC(=O)C1=CCC[C@@H]2[C@@](C)(CCc3ccoc3)[C@H](C)CC[C@@]12C
OBSERVABLE: inhibition zone (IZ)
OBSERVED VALUE: inactive

###

# Test system: Escherichia coli
# EXPERIMENT DESCRIPTION: Antibacterial activity against Escherichia coli ATCC 10536 at 1 mg/ml after 24 hrs by agar-well diffusion assay
# Type: functional
Activity calls are given as the source filed them. The calls are words filed in the database; no cut-off is given here.
OBSERVABLE: inhibition zone (IZ)

COMPOUND: C[C@@H]1CC[C@@]2(C)C(C(=O)O)=CCC[C@@H]2[C@@]1(C)CCc1ccoc1
ASSAYED TARGET: Escherichia coli
OBSERVABLE: inhibition zone (IZ)
OBSERVED VALUE: inactive

COMPOUND: COC(=O)C1=CCC[C@@H]2[C@@](C)(CCc3ccoc3)[C@H](C)CC[C@@]12C
ASSAYED TARGET: Escherichia coli
OBSERVABLE: inhibition zone (IZ)
OBSERVED VALUE: inactive

COMPOUND: COC(=O)CC[C@]1(C)C(C(C)=O)CC[C@@]23C[C@@H]4[C@@H](CC21)[C@@]4(C)C3 (stereo partly drawn)
ASSAYED TARGET: Escherichia coli
OBSERVABLE: inhibition zone (IZ)
OBSERVED VALUE: inactive
